Test system: JHH-1 (Hepatocellular Carcinoma)
Test: combination Emax (second highest fraction inhibited in the dose matrix, 72 h); higher = more inhibition; extreme values may be limits of the assay
Tick true (1) if combination Emax is 0.5 or greater. Tick false (0) if combination Emax is less than 0.5.

Decide: is the reported value of combination Emax for NC1(C(=O)N[C@@H](CCO)c2ccc(Cl)cc2)CCN(c2ncnc3[nH]ccc23)CC1 [Capivasertib] + CC(C)n1c(=O)n(C)c2cnc3cc(F)c(-c4ccc(OCCCN5CCCCC5)nc4)cc3c21 [AZD1390] (first compound max 10 µM, 7x7, partner max 0.3 µM) equal to or greater than 0.5?
false (0)

Decide: is the reported value of combination Emax for C[C@@H](c1ccc2nccn2c1)n1nnc2ncc(-c3cnn(C)c3)nc21 [Savolitinib] + CC1(C)CCC(CN2CCN(c3ccc(C(=O)NS(=O)(=O)c4ccc(NCC5CCOCC5)c([N+](=O)[O-])c4)c(Oc4cnc5[nH]ccc5c4)c3)CC2)=C(c2ccc(Cl)cc2)C1 [Venetoclax] (first compound max 1 µM, 7x7, partner max 1 µM) equal to or greater than 0.5?
false (0)

Decide: is the reported value of combination Emax for COc1cccc(OCCCN)c1-c1cc(Nc2cnc(C#N)cn2)n[nH]1 [Prexasertib] + CCc1c2c(nc3ccc(O)cc13)-c1cc3c(c(=O)n1C2)COC(=O)[C@]3(O)CC [SN-38] (first compound max 1 µM, 7x7, partner max 0.3 µM) equal to or greater than 0.5?
true (1)

Decide: is the reported value of combination Emax for CC1(C)CCC(CN2CCN(c3ccc(C(=O)NS(=O)(=O)c4ccc(NCC5CCOCC5)c([N+](=O)[O-])c4)c(Oc4cnc5[nH]ccc5c4)c3)CC2)=C(c2ccc(Cl)cc2)C1 [Venetoclax] + CN(C)CCCOc1ccc(-c2ccc3ncc4c(c3c2)n(C2CCOCC2)c(=O)n4C)cn1 [AZD0156] (first compound max 1 µM, 7x7, partner max 1 µM) equal to or greater than 0.5?
false (0)

Decide: is the reported value of combination Emax for CC(=O)c1c(C)c2cnc(Nc3ccc(N4CCNCC4)cn3)nc2n(C2CCCC2)c1=O [Palbociclib] + CN(CC[C@H](CSC1=CC=CC=C1)NC2=C(C=C(C=C2)S(=O)(=O)NC(=O)C3=CC=C(C=C3)N4CCC(CC4)[C@H](C5=CC=CC=C5C6=CC=C(C=C6)Cl)O)S(=O)(=O)C(F)(F)F)CCO [AZD4320] (first compound max 10 µM, 7x7, partner max 1 µM) equal to or greater than 0.5?
true (1)

Decide: is the reported value of combination Emax for C=CCn1c(=O)c2cnc(Nc3ccc(N4CCN(C)CC4)cc3)nc2n1-c1cccc(C(C)(C)O)n1 [AZD1775] + C1CN(CCC1(C(=O)N[C@@H](CCO)C2=CC=C(C=C2)Cl)N)C3=NC=NC4=C3C=CN4 [Capivasertib] (first compound max 3 µM, partner max 3 µM) equal to or greater than 0.5?
true (1)

Decide: is the reported value of combination Emax for COc1nnc2ccc(N3CCC(c4ccc(OCCN5CCN(C)C(=O)[C@H]5C)cc4)CC3)nn12 [AZD5153] + CCN(CCO)CCCOc1ccc2c(Nc3cc(CC(=O)Nc4cccc(F)c4)[nH]n3)ncnc2c1 [AZD2811] (first compound max 1 µM, 7x7, partner max 1 µM) equal to or greater than 0.5?
false (0)

Decide: is the reported value of combination Emax for CC1(C)CCC(CN2CCN(c3ccc(C(=O)NS(=O)(=O)c4ccc(NCC5CCOCC5)c([N+](=O)[O-])c4)c(Oc4cnc5[nH]ccc5c4)c3)CC2)=C(c2ccc(Cl)cc2)C1 [Venetoclax] + C1CN(CCC1(C(=O)N[C@@H](CCO)C2=CC=C(C=C2)Cl)N)C3=NC=NC4=C3C=CN4 [Capivasertib] (first compound max 1 µM, 7x7, partner max 3 µM) equal to or greater than 0.5?
false (0)

Decide: is the reported value of combination Emax for Cc1nc(Nc2ncc(C(=O)Nc3c(C)cccc3Cl)s2)cc(N2CCN(CCO)CC2)n1 [Dasatinib] + CC(=O)Nc1cccc(-n2c(=O)n(C3CC3)c(=O)c3c(Nc4ccc(I)cc4F)n(C)c(=O)c(C)c32)c1 [Trametinib] (first compound max 2 µM, 7x7, partner max 1 µM) equal to or greater than 0.5?
true (1)

Decide: is the reported value of combination Emax for COc1cccc(OCCCN)c1-c1cc(Nc2cnc(C#N)cn2)n[nH]1 [Prexasertib] + Cc1cc2ncnn2cc1Nc1ncc2c(n1)n(C1CCOCC1)c(=O)n2C [AZD7648] (first compound max 1 µM, 7x7, partner max 10 µM) equal to or greater than 0.5?
true (1)

Decide: is the reported value of combination Emax for CN(CCO)CC[C@H](CSc1ccccc1)Nc1ccc(S(=O)(=O)NC(=O)c2ccc(N3CCC([C@@H](O)c4ccccc4-c4ccc(Cl)cc4)CC3)cc2)cc1S(=O)(=O)C(F)(F)F [AZD4320] + C1CN(CCC1(C(=O)N[C@@H](CCO)C2=CC=C(C=C2)Cl)N)C3=NC=NC4=C3C=CN4 [Capivasertib] (first compound max 1 µM, 7x7, partner max 3 µM) equal to or greater than 0.5?
false (0)

Decide: is the reported value of combination Emax for Cc1c2c(nn1C)CSCc1cc(n(C)n1)CSc1cc(c3ccccc3c1)OCCCc1c(C(=O)O)n(C)c3c-2c(Cl)ccc13 [AZD5991] + CN(C)CCCOc1ccc(-c2ccc3ncc4c(c3c2)n(C2CCOCC2)c(=O)n4C)cn1 [AZD0156] (first compound max 1 µM, 7x7, partner max 1 µM) equal to or greater than 0.5?
false (0)

Decide: is the reported value of combination Emax for COc1nnc2ccc(N3CCC(c4ccc(OCCN5CCN(C)C(=O)[C@H]5C)cc4)CC3)nn12 [AZD5153] + Cc1c2c(nn1C)CSCc1cc(n(C)n1)CSc1cc(c3ccccc3c1)OCCCc1c(C(=O)O)n(C)c3c-2c(Cl)ccc13 [AZD5991] (first compound max 1 µM, 7x7, partner max 1 µM) equal to or greater than 0.5?
true (1)
